Tested on: B cell receptor-mediated activation of B cells in human blood
assay.procedure: Inhibition of B cell activation in whole blood measured by CD69 expression
Format: cell-based
experimental.context: anti-IgM stimulation 20 h, concentration decreasing by 50% the percentage of CD69-positive cells that are also CD20-positive
pIC50: −log10 of the molar value.
value.type: pIC50

INSERT INTO assay_data (compound, measured_on, experimental_result) VALUES
  ('Cn1cc(-c2cccc(N3CCNc4cc(C(C)(C)C)ccc4C3=O)c2CO)cc(Nc2ccc(C(=O)N3CCOCC3)cn2)c1=O [Compound I-3]', 'B cell receptor-mediated activation of B cells in human blood', 7.74),
  ('CN1CCN(c2ccc(Nc3cc(-c4cccc(N5CCNc6cc(C(C)(C)C)ccc6C5=O)c4CO)cn(C)c3=O)nc2)CC1 [Compound I-4]', 'B cell receptor-mediated activation of B cells in human blood', 7.42),
  ('Cn1cc(-c2cccc(N3CCNc4cc(C5CC5)ccc4C3=O)c2CO)cc(Nc2ccc(C(=O)N3CCOCC3)cn2)c1=O [Compound I-1]', 'B cell receptor-mediated activation of B cells in human blood', 6.95),
  ('CCN1CCN(c2ccc(Nc3cc(-c4cccc(N5CCOc6cc(C(C)(C)C)ccc6C5=O)c4CO)cn(C)c3=O)nc2)CC1 [II-3]', 'B cell receptor-mediated activation of B cells in human blood', 8.10);
